Multiple publications report pIC50 for Procathepsin L (Homo sapiens); what follows is a combined list.
Field pIC50 (float): negative decimal logarithm of the concentration in molar.

### Prompt What measured pIC50 is associated with "CC(C)C[C@H](N[C@@H](c1ccc(-c2cccc(S(C)(=O)=O)c2)cc1)C(F)(F)F)C(=O)N1C[C@H](F)[C@H]2OCC(=O)[C@H]21" on Procathepsin L (Homo sapiens)?
### Response 4.03

### Prompt What measured pIC50 is associated with "COC[C@H]1C[C@@H](NC(=O)c2ncc(-c3cc(C#N)ccc3OC3CC3)o2)CN1C#N" on Procathepsin L (Homo sapiens)?
### Response 4.81

### Prompt What measured pIC50 is associated with "CS(=O)(=O)N[C@H](CC(=O)N1CCc2ccccc2C1)C(=O)N[C@H](C=O)Cc1ccccc1" on Procathepsin L (Homo sapiens)?
### Response 7.25

* * *

pIC50: −log10 of the molar value.
Multiple publications report pIC50 for UniProt P07711; what follows is a combined list.

### Prompt What measured pIC50 is associated with "CCCC[C@H](NC(=O)O[C@@H]1CN(c2nnc(C(F)(F)F)s2)CC1(C)C)C(=O)C(=O)Nc1ccn[nH]1" on UniProt P07711?
### Response 6.00 to 7.00

### Prompt What measured pIC50 is associated with "CS(=O)(=O)c1ccc(-c2ccc3cc(C(=O)NC4(C(=O)NC5(C#N)CC5)CCCCC4)oc3c2)cc1" on UniProt P07711?
### Response < 5.00

### Prompt What measured pIC50 is associated with "CC(C)[C@@H]1NC(=O)/C=C/[C@@H](NC(=O)[C@H](Cc2ccccc2)NC(=O)OC(C)(C)C)COC(=O)[C@H](Cc2ccc(O)cc2)NC1=O" on UniProt P07711?
### Response > 5.52

### Prompt What measured pIC50 is associated with "N#CC1(NC(=O)C2(NC(=O)c3cc4ccc(-c5ccc(C6(O)CCC6)cc5)cc4o3)CCCCC2)CC1" on UniProt P07711?
### Response < 5.00
